Values from patent US10221163B2

STUDY SYSTEM: IMP-1 (Serratia marcescens)
Sequence (P52699 whole entry, looked up, species assumed): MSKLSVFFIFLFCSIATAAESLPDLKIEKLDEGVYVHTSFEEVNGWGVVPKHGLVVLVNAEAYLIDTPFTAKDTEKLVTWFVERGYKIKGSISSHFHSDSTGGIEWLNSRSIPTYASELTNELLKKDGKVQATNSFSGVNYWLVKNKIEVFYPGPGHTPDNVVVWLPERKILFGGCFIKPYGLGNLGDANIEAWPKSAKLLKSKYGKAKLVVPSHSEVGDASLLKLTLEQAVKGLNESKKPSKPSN
EXPERIMENT NOTES: biochemical
Type: biochemical
CONDITION PARAMETERS: fluorescence assay, CCF2-FA substrate, 2 pM enzyme, 2 hours at 25° C.; read-out: IMP-1 IC50
So basically, if IC50 comes in under 1 nM it's 1, and if it's 1 nM or more it's 0.

Illustrative cases are given below, each with its answer.
In [3]: df
Out[3]:
                                   compound                 study_system  answer_label
0  NC[C@@H](CO)NS(=O)(=O)c1ccc(-c2ccnc(N)c2)c(-c2nn[nH]n2)c1S(N)(=O)=O  IMP-1 (Serratia marcescens)             1
1  NCCNS(=O)(=O)c1ccc(-c2cccc3[nH]c(C4CNC4)nc23)c(-c2nn[nH]n2)c1S(N)(=O)=O  IMP-1 (Serratia marcescens)             1
2  CS(=O)(=O)C1CCN(S(=O)(=O)c2ccc(-c3cccc4sc(N)nc34)c(-c3nnn[nH]3)c2S(N)(=O)=O)C1 (stereo not shown)  IMP-1 (Serratia marcescens)             0

input: Given `Nc1ccc(-c2ccc(S(=O)(=O)N[C@H]3CNC[C@H]3N)c(S(N)(=O)=O)c2-c2nn[nH]n2)cn1` , is recorded IC50 strictly lower than 1 nM?
output: 1

input: Given `Nc1ccc(-c2ccc(S(=O)(=O)NC[C@@H]3CNCCN3)c(S(N)(=O)=O)c2-c2nn[nH]n2)cn1` , is recorded IC50 strictly lower than 1 nM?
output: 1

input: Given `Cn1nnc2c(-c3ccc(S(=O)(=O)N[C@H]4CCNC4)c(S(N)(=O)=O)c3-c3nn[nH]n3)cccc21` , is recorded IC50 strictly lower than 1 nM?
output: 0

* * *

STUDY SYSTEM: VIM-1 (Pseudomonas aeruginosa (strain ATCC 15692 / DSM 22644 / CIP 104116 / JCM 14847 / LMG 12228 / 1C / PRS 101 / PAO1))
EXPERIMENT NOTES: biochemical
CONDITION PARAMETERS: fluorescence assay, CCF2-FA substrate, 30 pM enzyme, 2 hours at 25° C.; read-out: VIM-1 IC50
REPORTED ENDPOINT: pIC50
Conceptually, pIC50 converts a concentration in mol/L into minus its log10.

                           structure_string  reported_endpoint  number
0  Cn1c(N)nc2c(-c3ccc(S(=O)(=O)N[C@@H]4CCNC4)c(S(N)(=O)=O)c3-c3nn[nH]n3)cccc21              pIC50    9.98

input: Report pIC50 for `CC1(NS(=O)(=O)c2ccc(-c3ccc(N)nc3)c(-c3nn[nH]n3)c2S(N)(=O)=O)CNC1.Cl.Cl` please.
output: 9.66

input: Report pIC50 for `NC[C@H](CO)NS(=O)(=O)c1ccc(-c2cccc3nc(N)[nH]c23)c(-c2nn[nH]n2)c1S(N)(=O)=O` please.
output: 9.26

input: Report pIC50 for `Nc1nc2c(-c3ccc(S(=O)(=O)N4CCNCC4)c(S(N)(=O)=O)c3-c3nn[nH]n3)cccc2s1` please.
output: 9.25

* * *

STUDY SYSTEM: VIM-1 (Pseudomonas aeruginosa (strain ATCC 15692 / DSM 22644 / CIP 104116 / JCM 14847 / LMG 12228 / 1C / PRS 101 / PAO1))
EXPERIMENT NOTES: biochemical
CONDITION PARAMETERS: fluorescence assay, CCF2-FA substrate, 30 pM enzyme, 2 hours at 25° C.; read-out: VIM-1 IC50
REPORTED ENDPOINT: IC50 (nM)
Return type: number; implicit unit nM.

                                   compound   u  number
0  NCCNS(=O)(=O)c1ccc(-c2ccc3sc(CN)nc3c2)c(-c2nn[nH]n2)c1S(N)(=O)=O  nM   0.121
1  NCCCNC(=O)c1cccc(-c2ccc(S(=O)(=O)NCCN)c(S(N)(=O)=O)c2-c2nn[nH]n2)c1  nM   0.474
2  Nc1ccc(-c2ccc(S(=O)(=O)N[C@H]3CNC[C@H]3O)c(S(N)(=O)=O)c2-c2nn[nH]n2)cn1  nM   0.374
3  NCCNS(=O)(=O)c1ccc(-c2cccc(SCC(N)CO)c2)c(-c2nn[nH]n2)c1S(N)(=O)=O (stereo not drawn)  nM   0.108

input: Report IC50 for `NS(=O)(=O)c1c(S(=O)(=O)N[C@H]2CCNC2)ccc(-c2cccc3[nH]cnc23)c1-c1nn[nH]n1` please.
output: 0.145

input: Report IC50 for `CNc1ccc(-c2ccc(S(=O)(=O)NCCN)c(S(N)(=O)=O)c2-c2nn[nH]n2)cn1` please.
output: 0.194

input: Report IC50 for Nc1nc2c(-c3ccc(S(=O)(=O)NC4CC5CNC4C5)c(S(N)(=O)=O)c3-c3nnn[nH]3)cccc2s1 (stereo not drawn) [Example 88] please.
output: 0.165

input: Report IC50 for `Cc1cc(-c2ccc(S(=O)(=O)NC[C@H](O)CN)c(S(N)(=O)=O)c2-c2nn[nH]n2)cnc1N` please.
output: 0.132

input: Report IC50 for `CNc1nc2c(-c3ccc(S(=O)(=O)NCCN)c(S(N)(=O)=O)c3-c3nn[nH]n3)cccc2[nH]1` please.
output: 0.12

* * *

Listing: IC50 of selected molecules
STUDY SYSTEM: IMP-1 (Serratia marcescens)
EXPERIMENT NOTES: biochemical
Format: biochemical
CONDITION PARAMETERS: fluorescence assay, CCF2-FA substrate, 2 pM enzyme, 2 hours at 25° C.; read-out: IMP-1 IC50

In [3]: df
Out[3]:
                                   molecule  reported_endpoint    result
0  Nc1nc2c(-c3ccc(S(=O)(=O)NCC4CCN4)c(S(N)(=O)=O)c3-c3nn[nH]n3)cccc2[nH]1 (stereo not shown) [Example 207]               IC50  0.999 nM
1  Nc1cccc(-c2ccc(S(=O)(=O)N[C@@H]3CCNC3)c(S(N)(=O)=O)c2-c2nn[nH]n2)n1 [Example 277]               IC50   1.27 nM
2  NC[C@@H](O)CNS(=O)(=O)c1ccc(-c2ccc(N)nc2)c(-c2nn[nH]n2)c1S(N)(=O)=O [Example 303]               IC50  0.536 nM

Next molecule, IC50 to be filled in.
input: Report IC50 for C[C@@H](N)c1nc2c(-c3ccc(S(=O)(=O)N[C@@H]4CCNC4)c(S(N)(=O)=O)c3-c3nn[nH]n3)cccc2[nH]1 [Example 273] please.
output: 1.41 nM

* * *

STUDY SYSTEM: VIM-1 (Pseudomonas aeruginosa (strain ATCC 15692 / DSM 22644 / CIP 104116 / JCM 14847 / LMG 12228 / 1C / PRS 101 / PAO1), UniProt A0A0F7KYQ8)
EXPERIMENT NOTES: biochemical
CONDITION PARAMETERS: fluorescence assay, CCF2-FA substrate, 30 pM enzyme, 2 hours at 25° C.; read-out: VIM-1 IC50
REPORTED ENDPOINT: pIC50
Conceptually, pIC50 converts a concentration in mol/L into minus its log10.

Here's what some known entries look like.
In [3]: df
Out[3]:
                           structure_string  number
0  NC(=O)[C@H](N)CNS(=O)(=O)c1ccc(-c2cccc3[nH]c(N)nc23)c(-c2nn[nH]n2)c1S(N)(=O)=O    9.67
1  NCCNS(=O)(=O)c1ccc(-c2cccc(NC[C@H](N)CO)c2)c(-c2nn[nH]n2)c1S(N)(=O)=O    9.38
2  NCCCCNS(=O)(=O)c1ccc(-c2cccc3[nH]c(N)nc23)c(-c2nn[nH]n2)c1S(N)(=O)=O    9.81

input: Report pIC50 for `NCCNS(=O)(=O)c1ccc(-c2ccc3nccn3c2)c(-c2nn[nH]n2)c1S(N)(=O)=O` please.
output: 10.05

input: Report pIC50 for `NCCNS(=O)(=O)c1ccc(-c2cccc3c2CCCN3)c(-c2nn[nH]n2)c1S(N)(=O)=O` please.
output: 9.79
